Tested on: Hymenobacter 1 (Hymenobacter glaciei)
Assay: relative growth (AUC of 72 h growth curve relative to DMSO control, dAUC) (ratio); higher = more growth (less inhibition), active = hit call of the paper;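 active = growth AUC significantly below the DMSO wells by Dunnett test; inactive = the rest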
Settings: 20 µM
Respond with a class label; see active, inactive

Worked examples, 8 compounds total:
>  <compound>
COC(=O)N(C(=O)N1CO[C@@]2(C(=O)OC)Cc3cc(Cl)ccc3C2=N1)c1ccc(OC(F)(F)F)cc1

>  <class-name>
inactive

$$$$
>  <compound>
CCCCOC(=O)[C@H](C)Oc1ccc(Oc2ccc(C#N)cc2F)cc1

>  <class-name>
inactive

$$$$
>  <compound>
CC[C@H]1CCC[C@H](O[C@H]2CC[C@H](N(C)C)[C@@H](C)O2)[C@@H](C)C(=O)C2=C[C@@H]3[C@@H](C=C(C)[C@@H]4C[C@@H](O[C@@H]5O[C@@H](C)[C@H](OC)[C@@H](OC)[C@H]5OC)C[C@@H]34)[C@@H]2CC(=O)O1.CC[C@H]1CCC[C@H](O[C@H]2CC[C@H](N(C)C)[C@@H](C)O2)[C@@H](C)C(=O)C2=C[C@H]3[C@@H]4C[C@H](O[C@@H]5O[C@@H](C)[C@H](OC)[C@@H](OC)[C@H]5OC)C[C@H]4C=C[C@H]3C2CC(=O)O1

>  <class-name>
inactive

$$$$
>  <compound>
Cc1ccc(/N=C/N(C)/C=N/c2ccc(C)cc2C)c(C)c1

>  <class-name>
inactive

$$$$
>  <compound>
N#C/N=C1\SCCN1Cc1ccc(Cl)nc1

>  <class-name>
inactive

$$$$
>  <compound>
O=C(O)c1nc(Cl)ccc1Cl

>  <class-name>
inactive

$$$$
>  <compound>
Oc1ccc(Cl)cc1Cc1cc(Cl)ccc1O

>  <class-name>
active

$$$$
>  <compound>
N#CC(CCc1ccc(Cl)cc1)(Cn1cncn1)c1ccccc1 (stereo not drawn)

>  <class-name>
inactive

$$$$

Ask: Test call for this compound, please: "COc1cc(C)c(C(=O)c2c(OC)ccc(Br)c2C)c(OC)c1OC"
Result: inactive

Ask: Test call for this compound, please: "CCC(C)(C)C(=O)OC1=C(c2ccc(Cl)cc2Cl)C(=O)OC12CCCCC2"
Result: inactive

Ask: Test call for this compound, please: "CC(C)N1C(=O)c2ccccc2NS1(=O)=O"
Result: inactive

###

System: Carnobacterium 1 (Carnobacterium gallinarum)
Experiment: relative growth (AUC of 72 h growth curve relative to DMSO control, dAUC) (ratio); higher = more growth (less inhibition), active = hit call of the paper
Conditions: 20 µM
# relative growth per record follows
Please reply with the number alone, leaving off any unit.

>  <compound>
C#CCOc1ccc(CCNC(=O)C(OCC#C)c2ccc(Cl)cc2)cc1OC (stereo not given)

>  <quantity-measured>
relative growth

>  <recorded-value>
1.18

$$$$
>  <compound>
CC1COC(Cn2cncn2)(c2ccc(Oc3ccc(Cl)cc3)cc2Cl)O1 (stereo not given)

>  <quantity-measured>
relative growth

>  <recorded-value>
1.19

$$$$

Notebook: "COc1cc(C)c(C(=O)c2c(OC)ccc(Br)c2C)c(OC)c1OC" , relative growth read as 1.4

Notebook: "CNC(=O)c1cc(Cl)cc(C)c1NC(=O)c1cc(Br)nn1-c1ncccc1Cl" , relative growth read as 1.24

Notebook: "O=C(O)c1nc(Cl)ccc1Cl" , relative growth read as 0.925
